# tested_system: HCV NS3 protease genotype 3a (3A-1) (Hepatitis C virus genotype 3a)
# method: HCV NS3 protease time-resolved fluorescence (TRF) assay, genotype 3a
# Assay type: biochemical
# run_conditions: Ki 3a
measure_name: Ki (nM)
Give a bare numeral; the unit nM is implied.

Endpoint output: Ki of "C=C[C@@H]1C[C@]1(NC(=O)[C@@H]1C[C@@H]2CN1C(=O)[C@H](C(C)(C)C)NC(=O)O[C@@H]1CCC[C@H]1CCCCCc1c(nc3ccccc3c1OCCN1CCOCC1)O2)C(=O)NS(=O)(=O)C1CC1" . Value?
26

Thanks! And "C=C[C@@H]1C[C@]1(NC(=O)[C@@H]1C[C@@H]2CN1C(=O)[C@H](C(C)(C)C)NC(=O)O[C@@H]1C[C@H]1CCCCCc1c(nc3ccccc3c1OCC1CCN(CCOC)CC1)O2)C(=O)NS(=O)(=O)C1(C)CC1" ?
0.47

Value source: patent US9328138B2
